- Organism: Homo sapiens
- experimentalProtocol: Selectivity ratio of IC50 for human full length PKCdelta to IC50 for human full length PKCtheta

>  <lineNotation>
COc1ccccc1-c1cc2c(Nc3ccc4[nH]ccc4c3C)c(C#N)cnc2s1

>  <Ratio IC50>
10

$$$$
>  <lineNotation>
Cc1ccc(CN(C)C)cc1-c1cc2c(Nc3ccc4[nH]ccc4c3C)c(C#N)cnc2s1

>  <Ratio IC50>
4

$$$$
>  <lineNotation>
Cc1c(Nc2c(C#N)cnc3sc(-c4cccc(CN(C)C)c4)cc23)ccc2[nH]ccc12

>  <Ratio IC50>
4

$$$$
>  <lineNotation>
COc1c(CN(C)C)cccc1-c1cc2c(Nc3ccc4[nH]ccc4c3C)c(C#N)cnc2s1

>  <Ratio IC50>
2

$$$$
>  <lineNotation>
CCOc1ccc(CN(C)C)cc1-c1cc2c(Nc3ccc4[nH]ccc4c3C)c(C#N)cnc2s1

>  <Ratio IC50>
9

$$$$
